ASSAY_SUMMARY: Plasma pharmacokinetics of adavosertib
CONDITION_CONTEXT: human, oral, 300 mg
PROPERTY_NAME: concentration at 72 h

In plain terms, C=CCn1c(=O)c2cnc(Nc3ccc(N4CCN(C)CC4)cc3)nc2n1-c1cccc(C(C)(C)O)n1 has a documented concentration at 72 h of > 5 nM
